- assay.system: NaV 1.8 channel (Homo sapiens, UniProt Q9Y5Y9)
- Sequence (Q9Y5Y9 whole entry): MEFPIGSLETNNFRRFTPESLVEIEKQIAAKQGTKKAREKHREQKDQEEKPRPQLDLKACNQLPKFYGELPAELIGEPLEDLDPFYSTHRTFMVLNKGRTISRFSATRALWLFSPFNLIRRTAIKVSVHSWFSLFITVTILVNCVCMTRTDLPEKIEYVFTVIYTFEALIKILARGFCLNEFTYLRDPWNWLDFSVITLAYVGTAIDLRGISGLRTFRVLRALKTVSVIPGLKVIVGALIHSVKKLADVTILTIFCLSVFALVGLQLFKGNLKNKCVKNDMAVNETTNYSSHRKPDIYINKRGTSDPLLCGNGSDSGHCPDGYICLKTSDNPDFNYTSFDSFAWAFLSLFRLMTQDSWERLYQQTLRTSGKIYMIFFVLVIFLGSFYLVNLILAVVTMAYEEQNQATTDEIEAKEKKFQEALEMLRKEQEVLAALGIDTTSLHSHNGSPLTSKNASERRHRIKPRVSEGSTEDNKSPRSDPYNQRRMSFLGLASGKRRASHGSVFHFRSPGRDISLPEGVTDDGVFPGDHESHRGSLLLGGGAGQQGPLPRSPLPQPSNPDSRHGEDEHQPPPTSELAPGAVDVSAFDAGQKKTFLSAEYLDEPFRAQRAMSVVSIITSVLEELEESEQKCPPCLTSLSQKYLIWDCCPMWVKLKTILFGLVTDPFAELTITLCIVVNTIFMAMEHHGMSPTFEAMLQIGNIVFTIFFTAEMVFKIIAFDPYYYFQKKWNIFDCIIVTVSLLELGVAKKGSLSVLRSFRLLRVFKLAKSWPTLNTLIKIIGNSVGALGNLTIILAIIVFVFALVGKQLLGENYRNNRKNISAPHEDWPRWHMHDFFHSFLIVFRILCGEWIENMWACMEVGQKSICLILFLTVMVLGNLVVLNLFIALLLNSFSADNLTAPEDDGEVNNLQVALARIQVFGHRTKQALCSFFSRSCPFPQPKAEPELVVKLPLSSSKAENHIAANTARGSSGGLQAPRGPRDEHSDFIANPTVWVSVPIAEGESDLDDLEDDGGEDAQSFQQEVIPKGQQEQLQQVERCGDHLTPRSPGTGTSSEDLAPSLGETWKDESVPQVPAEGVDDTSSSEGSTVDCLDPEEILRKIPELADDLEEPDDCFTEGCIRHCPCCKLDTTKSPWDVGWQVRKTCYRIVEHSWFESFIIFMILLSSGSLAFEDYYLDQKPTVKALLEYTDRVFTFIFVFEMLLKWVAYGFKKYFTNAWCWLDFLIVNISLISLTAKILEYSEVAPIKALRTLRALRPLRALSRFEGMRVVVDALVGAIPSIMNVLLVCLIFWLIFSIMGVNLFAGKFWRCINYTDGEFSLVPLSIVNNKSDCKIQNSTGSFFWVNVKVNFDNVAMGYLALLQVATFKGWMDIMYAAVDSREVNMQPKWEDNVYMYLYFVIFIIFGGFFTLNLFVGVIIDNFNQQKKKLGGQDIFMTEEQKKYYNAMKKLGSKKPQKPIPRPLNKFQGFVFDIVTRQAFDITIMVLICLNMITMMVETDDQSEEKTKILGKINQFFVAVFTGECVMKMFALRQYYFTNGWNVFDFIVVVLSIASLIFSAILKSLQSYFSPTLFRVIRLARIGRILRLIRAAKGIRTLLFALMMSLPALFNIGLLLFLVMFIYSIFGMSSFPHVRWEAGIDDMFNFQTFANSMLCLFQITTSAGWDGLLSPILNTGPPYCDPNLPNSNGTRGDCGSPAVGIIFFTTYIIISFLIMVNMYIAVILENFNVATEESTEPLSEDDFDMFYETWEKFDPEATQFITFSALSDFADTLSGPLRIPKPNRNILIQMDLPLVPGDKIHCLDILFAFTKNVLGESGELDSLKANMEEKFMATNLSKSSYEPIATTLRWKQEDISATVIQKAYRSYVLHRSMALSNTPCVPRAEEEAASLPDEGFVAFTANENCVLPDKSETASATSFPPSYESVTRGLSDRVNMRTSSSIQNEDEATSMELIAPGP
- measurement.protocol: VIPR optical membrane potential assay with electrical stimulation, NaV1.8 inhibition
- particulars: activity against NaV 1.8 channel
- Procedure: Compounds of the invention are useful as antagonists of voltage-gated sodium ion channels. Antagonist properties of test compounds were assessed as follows. Cells expressing the NaV of interest were placed into microtiter plates. […] The cells were stimulated with either a chemical or electrical means to evoke a NaV dependent membrane potential change from unblocked channels, which was detected and measured with trans-membrane potential-sensitive dyes. […]
Consider the following compounds; for each one, report its IC50.

- COCCOC(=O)N[C@@H]1CCN(c2nc(-c3ccccc3O)nc3cc(C)ccc23)C1: 1 to 5 µM

Please give IC50 for each item listed below.
1. COCCOC(=O)N[C@H]1CCN(c2nc(-c3ccccc3O)nc3cc(C)ccc23)C1
2. Cc1ccc2c(N3CC[C@@H](NC(=O)OCC(C)(C)C)C3)nc(-c3ccccc3C(F)F)nc2c1
3. Cc1ccc2c(N3CC[C@@H](NC(=O)OC(C)C)C3)nc(-c3ccccc3O)nc2c1
4. CC(C)(C)COC(=O)N[C@@H]1CCN(c2nc(-c3ccccc3O)nc3ccc(F)cc23)C1
5. Cc1ccc2c(N3CC[C@@H](NC(=O)OCC(C)(C)C)C3)nc(-c3ccccc3O)nc2c1
6. CC(C)COC(=O)N[C@@H]1CCN(c2nc(-c3ccccc3O)nc3ccc(F)cc23)C1
7. COCCOC(=O)N[C@@H]1CCN(c2nc(-c3c(O)cccc3F)nc3cc(C)ccc23)C1
8. CCCOC(=O)N[C@@H]1CCN(c2nc(-c3ccccc3O)nc3cc(C)ccc23)C1

1: > 5 µM; 2: < 1 µM; 3: < 1 µM; 4: > 5 µM; 5: < 1 µM; 6: 1 to 5 µM; 7: 1 to 5 µM; 8: < 1 µM

The compound listed as `CCOC(=O)N[C@@H]1CCN(c2nc(-c3ccccc3O)nc3cc(C)ccc23)C1` has a reported IC50 of < 1 µM
